test: Metabolic stability in human liver microsomes; assay type: in vitro ADME; details: both sexes, human, liver microsomes, pH 7.4, Table S6, 1st batch; 40 min; 2 µM; read-out: % Remaining, Mean of 2
experimental readout: remaining at 40 min, 2 µM (%)

CC1CN(c2ccc(NC(=O)C34CCCC(c5ccc(OC(F)(F)F)cc5)(C3)C4)cn2)CC(C)O1 (stereo not shown) = 78

====

assay: in vitro; conditions: human, Caco-2, pH 7.4, Recovery B-A in presence of Verapamil, replicate 2, with verapamil
experimental readout: recovery at 90 min, 10 µM (%)

Cc1c(C(=O)Nc2ccc(N3C[C@@H](C)O[C@@H](C)C3)nc2)cccc1-c1ccc(OC(F)(F)F)cc1 = 60

====

Test: Metabolic stability in human liver microsomes
Type: in vitro ADME
Details: both sexes, human, human liver microsomes, pH 7.4; Table S7, 2nd batch; read-out: t1/2
Method: 9. Metabolic Stability in Human Liver Microsomes The objective of this study was to determine the metabolic stability of 3 test articles (EN300- […] in human liver microsomes at five-time points over 40 minutes using HPLC-MS. […] 100 rpm. Five-time points over 40 minutes were analyzed. […] Supernatants were analyzed using the HPLC system coupled with a tandem mass spectrometer. […]
experimental readout: half-life at 2 μM (h)

CC1CN(c2ccc(NC(=O)C34COCC(c5ccc(OC(F)(F)F)cc5)(C3)C4)cn2)CC(C)O1 (stereo not shown) [Compound 51] = 1.01

====

Below, each entry is listed alongside its reported solubility at 2 h.
assay: Kinetic solubility in phosphate-buffered saline, pH 7.4; format: physicochemical; conditions: 25 °C, pH 7.4, aqueous buffer, kinetic from dmso stock, PBS solubility, pH 7.4, Incubation 1
experimental readout: solubility at 2 h

CC1CN(c2ccc(NC(=O)C34COCC(c5ccc(OC(F)(F)F)cc5)(C3)C4)cn2)CC(C)O1 (stereo not shown) = 34 µM
Cc1nccn1CC1CCc2c(c3ccccc3n2C)C1=O (stereo not shown) = 124 µM
Cc1c(C(=O)Nc2ccc(N3C[C@@H](C)O[C@@H](C)C3)nc2)cccc1-c1ccc(OC(F)(F)F)cc1 = 6 µM
CC1CN(c2ccc(NC(=O)C34CCCC(c5ccc(OC(F)(F)F)cc5)(C3)C4)cn2)CC(C)O1 (stereo not shown) = 5 µM

====

experiment: in vitro; conditions: human, Caco-2, pH 7.4, Recovery A-B in presence of Verapamil, replicate 2, with verapamil
experimental readout: recovery at 90 min, 10 µM (%)

Cc1c(C(=O)Nc2ccc(N3C[C@@H](C)O[C@@H](C)C3)nc2)cccc1-c1ccc(OC(F)(F)F)cc1 = 63

====

Test: Metabolic stability in human liver microsomes
Format: in vitro ADME
Settings: both sexes, human, human liver microsomes, pH 7.4; read-out: CLint: experimental metabolic stability in human liver microsomes
Method: 9. Metabolic Stability in Human Liver Microsomes The objective of this study was to determine the metabolic stability of 3 test articles (EN300- […] in human liver microsomes at five-time points over 40 minutes using HPLC-MS. […] 100 rpm. Five-time points over 40 minutes were analyzed. […] Supernatants were analyzed using the HPLC system coupled with a tandem mass spectrometer. […]
experimental readout: microsomal CLint at 2 μM (µL/min/mg)

CC1CN(c2ccc(NC(=O)C34COCC(c5ccc(OC(F)(F)F)cc5)(C3)C4)cn2)CC(C)O1 (stereo not drawn) = 28
Cc1c(C(=O)Nc2ccc(N3C[C@@H](C)O[C@@H](C)C3)nc2)cccc1-c1ccc(OC(F)(F)F)cc1 = 16
CC1CN(c2ccc(NC(=O)C34CCCC(c5ccc(OC(F)(F)F)cc5)(C3)C4)cn2)CC(C)O1 (stereo not drawn) = 14
